In this section, each of the compounds is paired with its reported GFP response, % of DMSO.
# measurement-description: yeast AGP1-GFP level changes, GLN3 branch – cell-based, multiplex flow cytometry, S. cerevisiae, primary screen (AID 1887);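 also: AGP1-GFP fusion strain of S. cerevisiae within a five-strain barcoded multiplex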
# experimental-context: 3 h, at 10 µM, active compounds read high
Inconclusive results are not listed.
measure-name: GFP response, % of DMSO (%)

INSERT INTO results (compound, number) VALUES
  ('CC(C)C(CCN1C(=O)CCC1=O)C1CCOC(C)(C)C1 (stereo unspecified)', 101),
  ('CC(C)C[C@H]1C(=O)N2CCC[C@H]2[C@]2(O)O[C@](NC(=O)[C@@H]3C=C4c5cccc6[nH]c(Br)c(c56)CC4N(C)C3)(C(C)C)C(=O)N12 (stereo partly specified)', 104),
  ('O=C1c2ccccc2C2(c3ccccc3)NCCN12 (stereo unspecified)', 99.8),
  ('CCCCN1C[C@H](O)[C@@H](O)[C@H](O)[C@H]1CO', 113),
  ('O=C(NC(=S)Nc1nc(-c2ccccc2)cs1)c1ccco1', 87.3),
  ('Cc1ccccc1C(=O)Nc1ccccc1C(=O)NCC(C)C', 108),
  ('CCC(=O)O[C@]1(C(=O)CCl)[C@@H](C)C[C@H]2[C@@H]3CCC4=CC(=O)C=C[C@]4(C)[C@@]3(F)[C@@H](O)C[C@@]21C', 106),
  ('COc1cccc2c(=O)c3ccccc3oc12', 88),
  ('CCCCCC(O)c1cccc(OCc2ccc3ccccc3n2)c1 (stereo unspecified)', 109),
  ('COc1cccc(N2C(=O)CC(c3c[nH]c4ccccc34)C2=O)c1 (stereo unspecified)', 97.1),
  ('O=C(COc1ccc(F)cc1)OCCN1CCOCC1', 102);

src = PubChem BioAssay
